Could you please report measured koff for the items listed next?
target: T1, human CTLA-4-Fc (Chimerigen) (human, UniProt P16410 36-161; P01857 99-330 = IgG part, limits assumed); test: SPR, Fc fusion captured via anti-human IgG Fc
T1 construct: extracellular domain;domain: Fc portion; Bought protein; also called hCTLA-4-Fc; huCTLA-4-Ig
T1 sequence (P16410 other isoform, or with tags, fused parts or gaps mutant limits assumed): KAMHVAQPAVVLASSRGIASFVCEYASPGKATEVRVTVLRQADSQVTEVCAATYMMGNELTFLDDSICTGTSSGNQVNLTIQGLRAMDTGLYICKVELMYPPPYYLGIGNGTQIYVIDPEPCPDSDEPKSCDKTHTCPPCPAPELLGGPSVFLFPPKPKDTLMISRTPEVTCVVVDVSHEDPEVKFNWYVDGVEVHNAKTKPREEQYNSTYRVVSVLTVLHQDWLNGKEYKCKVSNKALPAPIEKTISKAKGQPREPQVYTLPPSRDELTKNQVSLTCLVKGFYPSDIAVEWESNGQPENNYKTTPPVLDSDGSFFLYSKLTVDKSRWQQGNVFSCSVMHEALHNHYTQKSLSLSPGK
One number for each entry, in s⁻¹.

// worked examples, koff included
Task item: Given the entry hNGAL mutein S67.2-F03 (designed binder) QDSTSDLIPAPPLSKVPLQQNFQDNQFHGKWYVVGLAGNRILRDDQHPMNMYATIYELKEDKSYNVTSVIFPHKKCEYTIATFVPGSQPGEFTLGNIKSYGDKTSYLVRVVSTNYNQHAMVFFKLVEDNAEFFAITIYGRTKELASELKENFIRFSKSLGLPENHIVFPVPIDQCIDGSAWSHPQF , report its measured koff.
Reply: 0.00033

Task item: Subsequent entry: hNGAL mutein S67.3-C21 (designed binder) QDSTSDLIPAPPLSKVPLQQNFQDNQFHGKWYVVGLAGNYIWRNDRYPMQMYATIYELKEDKSYNVTSVIFDTKKCEYPIATFVPGSQPGEFTLGNIKSYRMDTSYLVRVVSTNYNQHAMVFFKQVNHNTEHFAITIYGRTKELASELKENFIRFSKSLGLPENHIVFPVPIDQCIDGSAWSHPQF
Reply: 0.00033

Hello, I would appreciate it if you could give koff for each entry below.
1. hNGAL mutein F92.1-J08 (designed binder, also called CTLA-4-J08) QDSTSDLIPAPPLSKVPLQQNFQDNQFHGKWYVVGLAGNRILRDDQHPMNMYATIYELKEDKSYNVTSVIFPHKKCEYTIATFVPGSQPGEFTLGNIKSYGDKTSYLVRVVSTNYNQYAVVFFKLAEDNAEFFAITIYGRTKELASELKENFIRFSKSLGLPENHIVFPVPIDQCIDGSAWSHPQF
2. hNGAL mutein S94.7-Q13 (designed binder, also called CTLA-4-Q13) QDSTSDLIPAPPLSKVPLQQNFQDNQFHGKWYVVGLAGNRILRDDQHPMNMYATIYELKEDKSYNVTSVIFPHKKCEYTIATFVPGSQPGEFTLGNIKSYGDKTSYLVRVVSTNYNQHATVFFKLAEDNAEFFAITIYGRTKELASELKENFIRFSKSLGLPENHIVFPVPIDQCIDGSAWSHPQF

Reply:
[0.000116, "7.1e-05"]
